melting point listing for selected molecules.

Observe how each entry below is paired with its result.
molecule	property_name	value
O=C(Nc1cccc(CN2C(=O)[C@H]3CCC[C@H]3N(C(=O)CN3C(=O)c4ccccc4C3=O)c3ccccc32)c1)OCc1ccccc1 (relative stereo)	melting point	224 to 225 °C
NC(=O)C(Nc1ccc(Cl)cc1)c1c(Cl)cccc1Cl (stereo unspecified)	melting point	178 °C
CC(=CC(=O)c1ccc(C(F)(F)F)cc1[N+](=O)[O-])N(C)C	melting point	122 °C

Inquiry: For the molecule O=C1CCc2cc(O)ccc21 , what melting point is on record?
Reply text: 185 to 187 °C

Inquiry: Recorded melting point for O=C(/C=C/c1ccn(S(=O)(=O)c2ccc(-c3ccccn3)s2)c1)NO , please?
Reply text: 181 to 182 °C

Inquiry: Value lookup for melting point; key = COP(=O)(CC(=O)[C@@H]1COC(C)(C)N1C(=O)OC(C)(C)C)OC
Reply text: 86 to 87 °C

Inquiry: Returns the measured melting point for the input molecule. Input: C(=Cc1ccc(-c2cc3c(ccc4oc5ccccc5c43)o2)cc1)c1ccccc1
Reply text: 239 to 241 °C
